tested on: Mus musculus; assay: Effect on shock sensitivity during training in Swiss mouse model of Alzheimer's disease assessed as increase in retention latency time at 0.3 to 3 mg/kg, ip administered once daily for 7 days measured 48 hrs post-last dose by step-through passive avoidance test; type: ADME, organism-based; conditions: in vivo
endpoint: Activity

Task: Given the compound CCCCCCCNC(=O)Oc1ccc2c(c1)CN(C)C(c1cccs1)N2C (stereo not given) , write its reported Activity.
Output: Non-Toxic

Task: Report measured Activity; entry is CN1c2ccc(OC(=O)NCCCCCCN3CCc4ccccc4C3)cc2CN2CCc3ccccc3C21 (stereo not given)
Output: Non-Toxic

Task: Please report the measured Activity for CN1c2ccc(O)cc2CN2CCc3ccccc3C21 (stereo not given)
Output: Non-Toxic

Task: Indicate the recorded Activity value for this compound: CCCCCCCNC(=O)Oc1ccc2c(c1)CN1CCc3ccccc3C1N2C (stereo not given)
Output: Non-Toxic

Next item in the queue.
Task: Give recorded Activity. CN1c2ccc(OC(=O)NCCCCCCN3CCOCC3)cc2CN2CCc3ccccc3C21 (stereo not given)
Output: Non-Toxic

* * *

biological target: Cholinesterases; ACHE & BCHE (Homo sapiens) (UniProt P06276+P22303); assay: Selectivity index, ratio of IC50 for inhibition of human erythrocyte AChE to IC50 for inhibition of human plasma BChE; assay type: protein assay
Sequence (P06276 whole entry, looked up): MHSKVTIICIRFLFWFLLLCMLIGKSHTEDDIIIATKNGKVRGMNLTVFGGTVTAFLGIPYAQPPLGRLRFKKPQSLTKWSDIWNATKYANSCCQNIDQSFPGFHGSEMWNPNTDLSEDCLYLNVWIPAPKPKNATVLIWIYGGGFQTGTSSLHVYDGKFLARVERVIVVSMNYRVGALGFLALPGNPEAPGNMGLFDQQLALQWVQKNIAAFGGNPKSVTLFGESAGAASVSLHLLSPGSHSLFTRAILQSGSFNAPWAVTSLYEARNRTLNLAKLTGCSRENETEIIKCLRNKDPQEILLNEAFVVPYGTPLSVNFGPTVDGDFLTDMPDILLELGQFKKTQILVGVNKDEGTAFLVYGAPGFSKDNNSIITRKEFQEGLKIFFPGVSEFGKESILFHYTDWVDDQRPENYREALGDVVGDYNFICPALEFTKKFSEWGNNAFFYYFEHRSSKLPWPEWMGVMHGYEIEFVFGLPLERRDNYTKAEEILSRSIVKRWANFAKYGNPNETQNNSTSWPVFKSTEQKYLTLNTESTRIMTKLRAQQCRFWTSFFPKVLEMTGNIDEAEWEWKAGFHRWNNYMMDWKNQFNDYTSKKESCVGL
Sequence (P22303 whole entry, looked up): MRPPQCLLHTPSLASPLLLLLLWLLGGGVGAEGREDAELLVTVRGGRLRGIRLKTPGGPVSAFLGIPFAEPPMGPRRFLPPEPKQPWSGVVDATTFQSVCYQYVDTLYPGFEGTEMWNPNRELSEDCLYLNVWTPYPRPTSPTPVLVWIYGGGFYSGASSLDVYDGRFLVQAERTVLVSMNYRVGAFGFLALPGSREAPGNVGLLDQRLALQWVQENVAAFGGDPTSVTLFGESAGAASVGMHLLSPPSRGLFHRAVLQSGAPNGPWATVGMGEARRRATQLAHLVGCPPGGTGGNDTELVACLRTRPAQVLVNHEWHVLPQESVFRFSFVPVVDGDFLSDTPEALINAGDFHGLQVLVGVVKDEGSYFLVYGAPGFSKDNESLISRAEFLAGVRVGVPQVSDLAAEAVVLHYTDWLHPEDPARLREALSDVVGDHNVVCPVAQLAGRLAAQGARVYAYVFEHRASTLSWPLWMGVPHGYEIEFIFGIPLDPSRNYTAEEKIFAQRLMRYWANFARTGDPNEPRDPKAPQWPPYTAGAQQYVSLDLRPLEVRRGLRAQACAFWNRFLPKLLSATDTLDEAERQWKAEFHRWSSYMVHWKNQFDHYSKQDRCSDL
Give measured Ratio IC50 for each item. Keep answers brief.

Task: Fill in reported Ratio IC50 for this entry: CN1c2ccc(OC(=O)NCCCN3CCOCC3)cc2CN2CCc3ccccc3C21 (stereo not given)
Output: > 100

Task: Using the record for CN1c2ccc(OC(=O)NCCCCCCN3CCCC3)cc2CN2CCc3ccccc3C21 (stereo not given) , state its measured Ratio IC50.
Output: 26

Task: Return Ratio IC50 (reported value) for this compound: CN1c2ccc(OC(=O)NCCCCCCCCCCN3CCc4ccccc4C3)cc2CN2CCc3ccccc3C21 (stereo not given)
Output: > 1000

Task: Complete the entry with Ratio IC50 for CN1c2ccc(OC(=O)NCCCCCCN3CCN(C(=O)OC(C)(C)C)CC3)cc2CN2CCc3ccccc3C21 (stereo not given)
Output: > 10

Task: Give recorded Ratio IC50. CN1c2ccc(OC(=O)NCCCCCCN3CCOCC3)cc2CN2CCc3ccccc3C21 (stereo not given)
Output: > 1000

* * *

biological target: UniProtKB P06276; experiment: Inhibition of human plasma BChE assessed as carbamylation by measuring rate constant for inhibitor-enzyme complex formation using butyrylthiocholine iodide as substrate preincubated for 5 to 40 mins followed by substrate addition and measured after 2.5 mins by DTNB reagent based UV-spectrometric method
Threshold-based label: K under 0.3 min⁻¹ gives Fulfilled, K not under 0.3 min⁻¹ gives Not fulfilled.

Task: hey, is K for CN1c2ccc(OC(=O)NCCCCCCCCCCN3CCc4ccccc4C3)cc2CN2CCc3ccccc3C21 (centres undefined) lower than 0.3 min⁻¹ or not?
Output: Fulfilled

Task: is_below(K, 0.3 min⁻¹) for CN1c2ccc(OC(=O)NCCCCCCn3ccnc3)cc2CN2CCc3ccccc3C21 (centres undefined) ?
Output: Not fulfilled

Task: Item CN1c2ccc(OC(=O)NCCCCCCN3CCOCC3)cc2CN2CCc3ccccc3C21 (centres undefined) : K beneath 0.3 min⁻¹, strictly?
Output: Fulfilled

Task: Regarding CN1c2ccc(OC(=O)NCCCCCCN3CCNCC3)cc2CN2CCc3ccccc3C21 (centres undefined) , kindly confirm whether its K is beneath 0.3 min⁻¹.
Output: Not fulfilled

Task: Report whether reported K is lower than 0.3 min⁻¹ (strictly) for CCCCCCCNC(=O)Oc1ccc2c(c1)CN1CCc3ccccc3C1N2C (centres undefined)
Output: Not fulfilled

Task: Is the reported K for CN1c2ccc(OC(=O)NCCCCCCN3CCc4ccccc4C3)cc2CN2CCc3ccccc3C21 (centres undefined) strictly below 0.3 min⁻¹?
Output: Fulfilled

Task: Quick check: K of CN1c2ccc(OC(=O)NCCCCCCn3cnc4ccccc43)cc2CN2CCc3ccccc3C21 (centres undefined) under 0.3 min⁻¹?
Output: Fulfilled

Task: Consider the molecule CN1c2ccc(OC(=O)NCCN3CCc4ccccc4C3)cc2CN2CCc3ccccc3C21 (centres undefined) . Is its K strictly less than 0.3 min⁻¹?
Output: Not fulfilled

Task: Quick check: does CN1c2ccc(OC(=O)NCCCCCCN3CCN(C(=O)OC(C)(C)C)CC3)cc2CN2CCc3ccccc3C21 (centres undefined) have K under 0.3 min⁻¹?
Output: Not fulfilled
